All figures here come from patent US6630485B2.

property.name: melting point

These solved cases illustrate the format of a correct answer.
> print(dat)
                                   compound  property.name             result
1  Fc1ccc(-c2c(-c3ccncc3)oc3cccnc23)cc1 [compound 101]  melting point      141 to 143 °C
2  Fc1ccc(-c2c(-c3ccncc3)n(CCN3CCCCC3)c3cccnc23)cc1 [compound 9]  melting point  148.1 to 153.3 °C
3  Fc1ccc(-c2c(-c3ccncc3)n(OCCN3CCCCC3)c3cccnc23)cc1 [compound 4]  melting point    95.9 to 98.7 °C
4  Fc1ccc(-c2c(-c3ccncc3)[nH]c3ccncc23)cc1 [compound 105]  melting point      256 to 257 °C
5  CCn1c(-c2ccncc2)c(-c2ccc(F)cc2)c2ncccc21 [compound 7]  melting point      204 to 206 °C

Q. For the compound COn1c(-c2ccncc2)c(-c2ccc(F)cc2)c2ncccc21 [compound 2] , report melting point.
A. 168 to 171.5 °C

Q. Specify melting point for Fc1ccc(-c2c(-c3ccnc(Cl)n3)oc3cccnc23)cc1 [compound 102] and stop.
A. 224.8 to 225.2 °C

Q. Given the compound Fc1ccc(-c2c(-c3ccncc3)[nH]c3cccnc23)cc1 [compound 6] , write its reported melting point.
A. > 285 °C

Q. Give the value of melting point reported for the following: On1c(-c2ccncc2)c(-c2ccc(F)cc2)c2ncccc21 [compound 1]
A. 225 to 228 °C

Q. Note down melting point recorded for Fc1ccc(-c2c(-c3ccncc3)n(OCCN3CCOCC3)c3cccnc23)cc1 [compound 3]
A. 139 to 141 °C

Q. Tell me its melting point given Fc1ccc(-c2c(-c3ccncc3)n(OCCN3CCCC3)c3cccnc23)cc1 [compound 5] as the entry.
A. 123 to 129 °C

Q. Please give the documented melting point of Nc1nccc(-c2oc3cccnc3c2-c2ccc(F)cc2)n1 [compound 103]
A. 252.9 to 253.7 °C

Q. # return recorded melting point for entry Fc1ccc(-c2c(-c3ccncc3)n(CCN3CCOCC3)c3cccnc23)cc1 [compound 8]
A. 171.2 to 173 °C

====

# tgt: p38 MAP kinase (Homo sapiens, UniProt Q16539)
# Sequence (Q16539 whole entry): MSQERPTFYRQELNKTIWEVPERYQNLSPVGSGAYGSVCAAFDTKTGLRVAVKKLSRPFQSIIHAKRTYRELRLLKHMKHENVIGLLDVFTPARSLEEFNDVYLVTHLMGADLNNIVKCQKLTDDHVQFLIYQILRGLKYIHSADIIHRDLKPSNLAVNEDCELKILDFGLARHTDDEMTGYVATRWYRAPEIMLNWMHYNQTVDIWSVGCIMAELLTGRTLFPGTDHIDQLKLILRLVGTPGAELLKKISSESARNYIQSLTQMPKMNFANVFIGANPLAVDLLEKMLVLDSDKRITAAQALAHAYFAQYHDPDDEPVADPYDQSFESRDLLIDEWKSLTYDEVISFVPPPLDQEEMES
# assay.details: Inhibition of p-38 (MAP) kinase, in vitro assay (33P transfer from γ-33P-ATP to Myelin Basic Protein)
# reported.conditions: phosphorylated recombinant p38 MAP kinase, MBP substrate, 30° C., read-out: IC50 (concentration causing 50% inhibition of the p-38 enzyme)
property.name: IC50 (nM)

> print(dat)
                                   compound  property.name  result
1  Fc1ccc(-c2c(-c3ccncc3)[nH]c3nccnc23)cc1 [compound 106]           IC50     120
2  COn1c(-c2ccncc2)c(-c2ccc(F)cc2)c2ncccc21 [compound 2]           IC50      68
3  Fc1ccc(-c2c(-c3ccncc3)oc3cccnc23)cc1 [compound 101]           IC50    85.5
